- study target: Recombinant human KIF18A (1-467His-tagged) protein (Homo sapiens, UniProt Q8NI77)
- Construct: Recombinant human KIF18A (1-467His-tagged) protein; His
- Sequence (Q8NI77 1-467): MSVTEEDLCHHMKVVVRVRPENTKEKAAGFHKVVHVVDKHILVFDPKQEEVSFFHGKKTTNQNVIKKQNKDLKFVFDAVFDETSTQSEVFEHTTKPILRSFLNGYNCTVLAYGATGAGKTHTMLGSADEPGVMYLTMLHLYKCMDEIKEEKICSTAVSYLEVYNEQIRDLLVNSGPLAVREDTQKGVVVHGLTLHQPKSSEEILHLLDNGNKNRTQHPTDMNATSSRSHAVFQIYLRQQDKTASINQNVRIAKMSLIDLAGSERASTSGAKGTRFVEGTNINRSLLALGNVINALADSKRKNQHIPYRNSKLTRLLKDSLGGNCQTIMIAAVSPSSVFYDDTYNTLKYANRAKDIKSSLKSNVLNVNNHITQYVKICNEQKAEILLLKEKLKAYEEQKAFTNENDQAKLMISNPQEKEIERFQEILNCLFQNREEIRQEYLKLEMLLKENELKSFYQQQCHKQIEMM
- Sequence (P02550 whole entry partner): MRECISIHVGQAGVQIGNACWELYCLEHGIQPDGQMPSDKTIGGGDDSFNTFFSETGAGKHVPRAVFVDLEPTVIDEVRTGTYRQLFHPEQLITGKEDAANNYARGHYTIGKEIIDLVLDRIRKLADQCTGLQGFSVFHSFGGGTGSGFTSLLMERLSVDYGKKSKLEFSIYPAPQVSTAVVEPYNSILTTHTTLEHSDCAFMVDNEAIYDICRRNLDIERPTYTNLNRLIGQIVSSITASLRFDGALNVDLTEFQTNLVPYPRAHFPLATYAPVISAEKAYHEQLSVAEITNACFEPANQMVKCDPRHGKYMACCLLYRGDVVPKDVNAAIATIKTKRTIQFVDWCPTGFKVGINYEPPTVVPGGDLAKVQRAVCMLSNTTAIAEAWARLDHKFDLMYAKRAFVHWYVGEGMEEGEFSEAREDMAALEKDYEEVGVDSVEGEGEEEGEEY
- Sequence (P02554 whole entry partner): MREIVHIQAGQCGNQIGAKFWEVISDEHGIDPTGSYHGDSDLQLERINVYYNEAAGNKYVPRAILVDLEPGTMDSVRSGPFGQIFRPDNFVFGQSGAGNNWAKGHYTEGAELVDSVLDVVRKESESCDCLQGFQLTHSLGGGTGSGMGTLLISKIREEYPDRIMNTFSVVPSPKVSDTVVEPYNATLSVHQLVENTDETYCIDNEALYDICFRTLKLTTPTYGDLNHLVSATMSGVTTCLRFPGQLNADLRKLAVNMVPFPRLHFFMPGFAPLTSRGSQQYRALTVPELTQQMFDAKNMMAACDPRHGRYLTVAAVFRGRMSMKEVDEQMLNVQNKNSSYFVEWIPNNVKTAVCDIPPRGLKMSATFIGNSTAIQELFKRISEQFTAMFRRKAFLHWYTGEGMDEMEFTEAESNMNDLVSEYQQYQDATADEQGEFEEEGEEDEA
- experimental protocol: KIF18A enzyme assay (microtubule-stimulated ATPase activity, ADP-Glo)
- details: 30 nM KIF18A, 75 μM ATP, 30 μg/mL pig microtubules; read-out: Inhibitory activity against KIF18A IC50
We begin with a simple list: items and their reported IC50.

In the examples that follow, each entry is paired with its recorded IC50.
1) C[C@H]1CN(c2nc(NC(=O)c3cnc(NS(=O)(=O)CCO)cc3N3CCC4(CC3)CC4)ccc2OCF)CCO1 | ≤ 100 nM
2) O=C(Nc1ccc([N+](=O)[O-])c(N2CC(F)(F)C2)c1)c1cnc(S(=O)(=O)NCCO)cc1N1CCC2(CC1)CC2 | ≤ 100 nM
3) O=C(Nc1ccc(S(=O)(=O)NCCO)cc1N1CCC2(CC1)CC2)c1ccc([N+](=O)[O-])c(OCCC(F)(F)F)c1 | 100 to 500 nM
4) CC(C)(CO)Nc1cc(C(=O)Nc2cnc(S(=O)(=O)NCCO)cc2N2CCC3(CC2)CC3)ccc1[N+](=O)[O-] | 100 to 500 nM
5) CC1(F)CCN(c2nc(C(=O)Nc3cnc(S(=O)(=O)NCCO)cc3N3CCC4(CC3)CC4)ccc2[N+](=O)[O-])C1 (stereo not drawn) | 100 to 500 nM
6) C[C@H](CO)NS(=O)(=O)c1ccc(C(=O)Nc2ccc(OCF)c(N3CCC(F)(F)CC3)c2)c(N2CCC3(CC2)CC3)c1 | ≤ 100 nM
7) O=C(Nc1cnc(NS(=O)(=O)CCO)cc1N1CCC2(CC1)CC2)c1ccc([N+](=O)[O-])c(N2CCC(F)(F)CC2)c1 | ≤ 100 nM
8) C[C@H](CO)S(=O)(=O)Nc1ccc(C(=O)Nc2ccc([N+](=O)[O-])c(N3CCC(F)(F)CC3)n2)c(N2CCC3(CC2)CC3)c1 | ≤ 100 nM

Query: Consider the molecule CSc1ccc(NC(=O)c2cnc(NS(=O)(=O)CCO)cc2N2CCC3(CC2)CC3)nc1N1CCOCC1 and give its measured IC50.
Reply: ≤ 100 nM

Query: Query C[C@H]1CN(c2nc(C(=O)Nc3cnc(NS(=O)(=O)CCO)cc3N3CCC4(CC3)CC4)ccc2[N+](=O)[O-])CCO1 next
Reply: ≤ 100 nM

Query: Query O=C(Nc1ccc([N+](=O)[O-])c(OC2CCC2)n1)c1cnc(NS(=O)(=O)CCO)cc1N1CCC2(CC1)CC2 next
Reply: ≤ 100 nM

Query: Query C[C@H]1CN(c2nc(C(=O)Nc3ccc(S(=O)(=O)NCCO)cc3N3CCC4(CC3)CC4)ccc2OCF)CCO1 next
Reply: 100 to 500 nM
